System: A549
EXPERIMENT NOTES: NCI tumour cell line growth inhibition, 48 h
The source made the active and inactive calls. Rule as the data show it: active = GI50 up to about 1.1 µM and inactive = higher.
Your answer must be one of the following: active, inactive

Exercise: Name the outcome recorded for O=S1OC2(c3ccccc3-c3ccccc32)c2ccccc21 (configuration not stated) in the assay.
Solution: inactive

Exercise: Name the outcome recorded for Cc1c2c(cc3c(=O)ccn(CCN(C)C)c13)c(=O)ccn2CCN(C)C in the assay.
Solution: inactive

Exercise: Name the outcome recorded for COc1ccc(-c2ccccc2)c(N/N=C2\CCCNC2=O)c1 in the assay.
Solution: inactive

Exercise: Name the outcome recorded for Cc1cc(NS(=O)(=O)c2ccc(Nc3c4ccccc4nc4ccc(C(=O)Nc5ccc(S(N)(=O)=O)cc5)cc34)cc2)no1 in the assay.
Solution: inactive

Exercise: Name the outcome recorded for CCSc1nnc(-c2ccccc2)nc1Cc1ccc(OC)cc1 in the assay.
Solution: inactive

Exercise: Name the outcome recorded for O=S1(=O)OCCOS(=O)(=O)C1(Br)Br in the assay.
Solution: inactive

Exercise: Name the outcome recorded for CC(Nc1cccc(Cl)c1)c1ccncc1 (configuration not stated) in the assay.
Solution: inactive

Exercise: Name the outcome recorded for CSc1c(C#N)c(O)n(-c2ccc(C)cc2)c(=O)c1C#N in the assay.
Solution: inactive

Exercise: Name the outcome recorded for Cc1ccccc1/C=C/c1csnn1 in the assay.
Solution: inactive

Exercise: Name the outcome recorded for O=C1C2C3C=CC(C2C(=O)N1CO)C1C2C(=O)N(CO)C(=O)C2C31 (configuration not stated) in the assay.
Solution: inactive

Exercise: Name the outcome recorded for NCCCCNCCCNC(=O)c1nc(-c2csc(CCN)n2)sc1Cl in the assay.
Solution: inactive

Exercise: Name the outcome recorded for O=C(c1cscc1CCc1ccccc1)c1cscc1CCc1ccccc1 in the assay.
Solution: inactive

Exercise: Name the outcome recorded for Cc1ccc(S(=O)(=O)N2CCSCCSCCN(S(=O)(=O)c3ccc(C)cc3)CCN(S(=O)(=O)c3ccc(C)cc3)CC2)cc1 in the assay.
Solution: inactive

Exercise: Name the outcome recorded for O=S(=O)(O)c1ccc(/N=N/c2c(O)ccc3ccccc23)cc1 in the assay.
Solution: inactive

Exercise: Name the outcome recorded for Clc1cccc(N/N=N/c2ccc(-c3nc4ccccc4s3)cc2)c1 in the assay.
Solution: inactive

Exercise: Name the outcome recorded for CC1(O)CC(=O)c2c(cc3ccc(-c4c5c(c(O)c6c(O)cccc46)C(=O)CC(C)(O)C5)c(O)c3c2O)C1 (configuration not stated) in the assay.
Solution: active

Exercise: Name the outcome recorded for C=CCn1c2c(sc1=S)C(S)NC=N2 (configuration not stated) in the assay.
Solution: inactive

Exercise: Name the outcome recorded for COC(=O)/C(C#N)=C1\CCC(OC)N1C (configuration not stated) in the assay.
Solution: inactive

Exercise: Name the outcome recorded for COC(=O)C(=O)C(C(=O)C(=O)Nc1ccc(Cl)c(Cl)c1)c1nc2ccc(C(=O)c3ccccc3)cc2nc1O (configuration not stated) in the assay.
Solution: inactive

Exercise: Name the outcome recorded for CC(C)C1C(=O)N(c2c(F)c(F)c(F)c(F)c2F)C(=S)N1CC[S+]([O-])c1ccccc1 (configuration not stated) in the assay.
Solution: inactive

Exercise: Name the outcome recorded for O=C1C(=C/C=C2/SC(c3ccccc3)(c3ccccc3)c3ccccc32)C(=O)c2ccccc21 in the assay.
Solution: inactive

Exercise: Name the outcome recorded for O=C(Cn1c(-c2ccccc2)cc2ccccc21)N1CCOCC1 in the assay.
Solution: inactive

* * *

Exercise: state measured GI50 for each of the compounds provided.
Tested on: EKVX
EXPERIMENT NOTES: NCI tumour cell line growth inhibition, 48 h
Activity calls are given as the source filed them. Cut-off read from the data, not from the text of the source: active = GI50 up to about 1.1 µM and inactive = higher.

Exercise: Lab note: record GI50 of Cc1ccc(S(=O)(=O)N2C[C@@H]3CC[C@]4(CO[Si](C)(C)C(C)(C)C)N[C@@H](c5ccccc5)[C@H]2[C@H]34)cc1 tested on EKVX.
Solution: 34.2 µM (inactive)

Exercise: Lab note: record GI50 of Nc1ncn([C@H]2C[C@H](O)[C@@H](CO)O2)c(=O)n1 tested on EKVX.
Solution: 104 µM (inactive)

Exercise: Lab note: record GI50 of C1CN(P2(N3CC3)=NP(N3CC3)(N3CC3)=NP(N3CC3)(N3CC3)=N2)CCO1 (centres undefined) tested on EKVX.
Solution: > 100 µM (inactive)

Exercise: Lab note: record GI50 of O=C1C(c2ccccc2)=[N+]([O-])c2ccc(Cl)cc21 tested on EKVX.
Solution: 16.9 µM (inactive)

Exercise: Lab note: record GI50 of N/N=C1N=C(Cl)/C(=C/c2ccco2)N\1 tested on EKVX.
Solution: > 100 µM (inactive)

Exercise: Lab note: record GI50 of COc1ccc(C2CC(C)(O)Oc3cc4c(cc32)OCO4)cc1 (centres undefined) tested on EKVX.
Solution: 40.2 µM (inactive)

Exercise: Lab note: record GI50 of CN1c2ccccc2C2=C(c3ccccc3)CC[C@@H](C(=O)N3C4CC5CC[C@@]4(CS3(=O)=O)C5(C)C)[C@@H]21 (some centres undefined) tested on EKVX.
Solution: > 100 µM (inactive)

Exercise: Lab note: record GI50 of CC(C)c1ccccc1NC(=O)CCC(=O)NN tested on EKVX.
Solution: > 100 µM (inactive)

Exercise: Lab note: record GI50 of Cc1nnc(SCc2nc(C#N)c(C#N)nc2CSc2nnc(C)s2)s1 tested on EKVX.
Solution: 14.7 µM (inactive)

* * *

Tested on: SK-MEL-5
EXPERIMENT NOTES: NCI tumour cell line growth inhibition, 48 h
Activity calls are given as the source filed them. Cut-off read from the data, not from the text of the source: active = GI50 up to about 1.1 µM and inactive = higher.
Your answer must be one of the following: yes = active, no = inactive

Exercise: Name the outcome recorded for O=S(=O)(O)c1ccc(/N=N/c2c(O)ccc3ccccc23)cc1 in the assay.
Solution: no

Exercise: Name the outcome recorded for COc1ccc(N2CN3OC(=O)N(c4ccc(OC)cc4)[C@@]3(c3ccccc3)C2)cc1 in the assay.
Solution: no

Exercise: Name the outcome recorded for CCOC(=O)Nn1cnnc1C in the assay.
Solution: no

Exercise: Name the outcome recorded for O=C1NC(=S)NC(=O)C1=Cc1ccc2ccccc2n1 in the assay.
Solution: no

Exercise: Name the outcome recorded for O=C(/C=C/c1ccc(-c2ccccc2)cc1)NCc1ccc(C(=O)NCCc2c[nH]c3ccccc23)cc1 in the assay.
Solution: no

Exercise: Name the outcome recorded for COc1ccc(CCc2nccn2C)cc1OC in the assay.
Solution: no

Exercise: Name the outcome recorded for Cc1ccc2nc(NC(=O)C(=O)C(C#N)c3nc4ccccc4s3)sc2c1 (centres undefined) in the assay.
Solution: no

Exercise: Name the outcome recorded for O=C(NNC(=O)c1ccncc1)c1ccncc1 in the assay.
Solution: no

Exercise: Name the outcome recorded for CP(C)(=S)P(C)(C)=S in the assay.
Solution: no

Exercise: Name the outcome recorded for Nc1nc(Cl)c(N)c(NC23CC4CC(CC(C4)C2)C3)n1 in the assay.
Solution: no

Exercise: Name the outcome recorded for CCCC(CCC)C(=O)O in the assay.
Solution: no

Exercise: Name the outcome recorded for O=C(CSCC(=O)N/N=C/c1ccncc1)N/N=C/c1ccncc1 in the assay.
Solution: no

Exercise: Name the outcome recorded for CC1(C)C=Cc2c(cc3oc4ccc5c(c4c(=O)c3c2O)C=CC(C)(C)O5)O1 in the assay.
Solution: no

Exercise: Name the outcome recorded for COC1=C(OC)C(=O)C(Cc2c(Cl)nc3sccn23)=C(C)C1=O in the assay.
Solution: no

Exercise: Name the outcome recorded for O=C(/C=C/c1ccc(C(F)(F)F)cc1)c1c([O-])on[n+]1-c1ccccc1 in the assay.
Solution: no

Exercise: Name the outcome recorded for N#CCCC1(CCC#N)CCCCCCC(CCC#N)(CCC#N)C(=O)C1=O in the assay.
Solution: no

Exercise: Name the outcome recorded for N=c1oc2cc(O)ccc2cc1C(=O)Nc1cccc2ccccc12 in the assay.
Solution: no

Exercise: Name the outcome recorded for Cc1ccccc1NC(=O)C(=O)C(C#N)c1ccccc1C (centres undefined) in the assay.
Solution: no

Exercise: Name the outcome recorded for O=S(=O)(c1ccccc1)C1(CCC2OCCO2)C=CC2(CC1)OCCO2 (centres undefined) in the assay.
Solution: no

Exercise: Name the outcome recorded for C[C@]12CC(c3ccccc3O1)C(C(=O)NC13CC4CC(CC(C4)C1)C3)C(=O)N2 (some centres undefined) in the assay.
Solution: no

Exercise: Name the outcome recorded for Cc1cc(NS(=O)(=O)c2ccc(Nc3c4ccccc4nc4ccc(C(=O)Nc5ccc(S(N)(=O)=O)cc5)cc34)cc2)no1 in the assay.
Solution: no

Exercise: Name the outcome recorded for O=CC[C@H]1CCc2ccccc2C12CCC(=O)CC2 in the assay.
Solution: no

Exercise: Name the outcome recorded for Cc1ccc(-c2c(C#N)c(-c3ccc(Cl)cc3)c(C#N)c(=O)n2NS(=O)(=O)c2ccccc2)cc1 in the assay.
Solution: no

Exercise: Name the outcome recorded for Cc1ccc(S(=O)(=O)N2CCSCCSCCN(S(=O)(=O)c3ccc(C)cc3)CCN(S(=O)(=O)c3ccc(C)cc3)CC2)cc1 in the assay.
Solution: no

Exercise: Name the outcome recorded for N#CCC12CC=CCC1=C(O)C(=O)c1ccc(O)cc12 (centres undefined) in the assay.
Solution: no

Exercise: Name the outcome recorded for Cc1ccc([S+]([O-])c2sccc2C=O)cc1 (centres undefined) in the assay.
Solution: no

Exercise: Name the outcome recorded for CC[C@@]1(O)C(=O)OCc2c1cc1n(c2=O)Cc2c-1nc1ccccc1c2/C=N\NC(=O)C(N)CC(C)C (some centres undefined) in the assay.
Solution: yes

Exercise: Name the outcome recorded for CN(C)CC1CC/C(=C\c2ccc(Cl)cc2)C1=O (centres undefined) in the assay.
Solution: no

Exercise: Name the outcome recorded for Clc1cc(Cl)ncn1 in the assay.
Solution: no

Exercise: Name the outcome recorded for COc1ccc(-c2cn3c(nc4ccccc43)c(/C=C/c3cccs3)n2)cc1 in the assay.
Solution: no

Exercise: Name the outcome recorded for O=C1C(=C/C=C2/SC(c3ccccc3)(c3ccccc3)c3ccccc32)C(=O)c2ccccc21 in the assay.
Solution: no

Exercise: Name the outcome recorded for C=C1C(=O)OC2/C=C(\C=O)CC/C=C(\C)C(O)C[C@@H]12 (some centres undefined) in the assay.
Solution: no

Exercise: Name the outcome recorded for C[C@]12CC[C@H](O)CC1=CC[C@@H]1[C@@H]2CC[C@]2(C)C(=O)[C@@H](N3CCOCC3)C[C@@H]12 in the assay.
Solution: no

Exercise: Name the outcome recorded for NC(=S)NC/C=C/Cl in the assay.
Solution: no

Exercise: Name the outcome recorded for COC1C(=O)CCC2(CO2)C1(O)C1(C)OC1CC=C(C)C (centres undefined) in the assay.
Solution: no

Exercise: Name the outcome recorded for COC(=O)c1cc(CC(C)C)c2c(c1)[nH]c1ccccc12 in the assay.
Solution: no

Exercise: Name the outcome recorded for O=S(=O)(O)c1cc(S(=O)(=O)O)c2c(/N=N/c3ccc(/N=N/c4ccccc4)cc3)c(O)ccc2c1 in the assay.
Solution: no

Exercise: Name the outcome recorded for Cc1ccc(S(=O)(=O)Oc2cc(-c3ccccc3)nc3ccccc23)cc1 in the assay.
Solution: no

Exercise: Name the outcome recorded for NCCCCN(CCCN)Cc1ccc2ccccc2c1 in the assay.
Solution: no

Exercise: Name the outcome recorded for CN(C)c1cccc(NC2=NCCO2)c1 in the assay.
Solution: no

Exercise: Name the outcome recorded for C[n+]1cn(-c2ccc([N+](=O)[O-])cn2)c2ccccc21 in the assay.
Solution: no

Exercise: Name the outcome recorded for O=[N+]([O-])c1nccn1COCCF in the assay.
Solution: no

Exercise: Name the outcome recorded for COc1c(F)c(F)c(C(=O)/C=C2\Nc3ccccc3NC2=O)c(F)c1F in the assay.
Solution: no

Exercise: Name the outcome recorded for CCNCC(O)c1ccc(N)c([N+](=O)[O-])c1 (centres undefined) in the assay.
Solution: no

These data points were gathered from ChEMBL document CHEMBL1201862.
